All values here come from paper PMC8569681.

measured-on: equine BChE (eqBChE) (Equus caballus)
Construct: purchased Sigma-Aldrich (Milan, Italy)
assay-protocol: Inhibition constant and mechanism vs eqBChE, Dixon's method
Format: biochemical
setup-conditions: mixed inhibition; α > 1 free enzyme, α < 1 enzyme–substrate complex
Examples of molecules with documented α, eqBChE follow.
property: α, eqBChE

COc1ccccc1CNCCCCCCNc1ccccn1 [Compound 28]	0.8
Brc1ccc(CNCCCCCCNc2ccccn2)cc1 [Compound 26]	0.5
c1ccc(CNCCCCCCNc2ccccn2)cc1 [Compound 25]	2.2
c1cnc(NCCCCCCNCc2c[nH]c3ccccc23)nc1 [Compound 22]	10
COc1cc(CNCCCCCCNc2ncccn2)ccc1O [Compound 18]	7.3
COc1cc(CNCCCCCCNc2ccccn2)ccc1O [Compound 30]	1.4

---

Examples of compounds with documented inhibition at 90 µM follow.
measured-on: Electrophorus electricus AChE (EeAChE) (Electrophorus electricus)
Construct: purchased Sigma-Aldrich (Milan, Italy)
assay-protocol: Percent inhibition of EeAChE, Ellman's spectrophotometric method
Format: biochemical
setup-conditions: read-out: % inhibition vs EeAChE ± SD (90 uM), 90 uM; supplement csv
property: inhibition at 90 µM (%)

c1ccc(CNCCCCCCNc2ncccn2)cc1	19.2
Brc1ccc(CNCCCCCNc2ccccn2)cc1	56.4
Oc1cccc(CNCCCCCCNc2ccccn2)c1	56
Clc1ccc(CNCCCCCCNc2ccccn2)cc1	73.2
c1ccc(CNCCCCCNc2ccccn2)cc1	56.5
COc1cc(CNCCCCCCNc2ccccn2)cc(OC)c1OC	68.9
Oc1cccc(CNCCCCCCNc2ccccn2)c1O	59.8
c1ccc(CNCCCCCCNc2ccccn2)cc1	71.6
Clc1cc(CNCCCCCCNc2ccccn2)cc(Cl)n1	68.3
COc1ccccc1CNCCCCCCNc1ccccn1	74.3
c1ccc(CNCCCCCNc2ncccn2)cc1	14.1
COc1cc(CNCCCCCCNc2ccccn2)ccc1O	90.9
Oc1cccc(CNCCCCCCNc2ncccn2)c1O	12.8
Brc1ccc(CNCCCCCCNc2ccccn2)cc1	76.8

---

measured-on: equine BChE (eqBChE) (Equus caballus, UniProt P81908)
Construct: purchased Sigma-Aldrich (Milan, Italy)
Sequence (P81908 whole entry): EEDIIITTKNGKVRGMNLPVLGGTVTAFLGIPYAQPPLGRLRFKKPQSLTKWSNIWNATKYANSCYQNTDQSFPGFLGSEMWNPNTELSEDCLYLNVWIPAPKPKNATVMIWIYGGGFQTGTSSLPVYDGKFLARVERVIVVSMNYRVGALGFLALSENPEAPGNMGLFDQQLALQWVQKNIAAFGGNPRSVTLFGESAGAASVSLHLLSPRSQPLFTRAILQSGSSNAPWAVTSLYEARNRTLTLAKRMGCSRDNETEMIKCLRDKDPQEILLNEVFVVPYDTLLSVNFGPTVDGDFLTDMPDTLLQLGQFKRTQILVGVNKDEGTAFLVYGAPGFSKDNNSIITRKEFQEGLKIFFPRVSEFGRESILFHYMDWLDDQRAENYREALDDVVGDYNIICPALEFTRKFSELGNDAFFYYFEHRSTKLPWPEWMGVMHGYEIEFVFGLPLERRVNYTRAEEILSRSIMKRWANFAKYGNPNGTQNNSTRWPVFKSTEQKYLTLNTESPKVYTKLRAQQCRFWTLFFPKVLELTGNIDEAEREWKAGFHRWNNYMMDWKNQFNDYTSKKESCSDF
assay-protocol: Percent inhibition of eqBChE, Ellman's spectrophotometric method
Assay type: biochemical
setup-conditions: [I] 900 nM; 0.0833 U/mL enzyme, 100 μM acetylthiocholine; read-out: % inhibition vs eqBChE ± SD
# binarize inhibition at 0.9 µM: threshold 10% inclusive, high side rule met, low side rule not met

Clc1ccc(CNCCCCCCNc2ccccn2)cc1 [Compound 27]	rule met
COc1ccccc1CNCCCCCCNc1ccccn1 [Compound 28]	rule met
c1ccc(CNCCCCCNc2ccccn2)cc1 [Compound 23]	rule not met
COc1cc(CNCCCCCCNc2ccccn2)ccc1O [Compound 30]	rule met
COc1cc(CNCCCCCCNc2ncccn2)ccc1O [Compound 18]	rule met
COc1cc(CNCCCCCCNc2ccccn2)cc(OC)c1OC [Compound 29]	rule met
c1cnc(NCCCCCCNCc2c[nH]c3ccccc23)nc1 [Compound 22]	rule met
Oc1cccc(CNCCCCCCNc2ccccn2)c1 [Compound 31]	rule met
Brc1ccc(CNCCCCCNc2ccccn2)cc1 [Compound 24]	rule met
Brc1ccc(CNCCCCCCNc2ncccn2)cc1 [Compound 14]	rule not met
Oc1cccc(CNCCCCCCNc2ccccn2)c1O [Compound 32]	rule met

---

measured-on: equine BChE (eqBChE) (Equus caballus, UniProt P81908)
Construct: purchased Sigma-Aldrich (Milan, Italy)
assay-protocol: Inhibition constant and mechanism vs eqBChE, Dixon's method
Format: biochemical
setup-conditions: Dixon's plot, best fitting model
property: inhibition mechanism on eqBChE

COc1ccccc1CNCCCCCCNc1ccccn1	mixed
Brc1ccc(CNCCCCCCNc2ccccn2)cc1	mixed
c1ccc(CNCCCCCCNc2ccccn2)cc1	mixed
c1cnc(NCCCCCCNCc2c[nH]c3ccccc23)nc1	mixed
COc1cc(CNCCCCCCNc2ncccn2)ccc1O	mixed
COc1cc(CNCCCCCCNc2ccccn2)ccc1O	mixed

---

measured-on: Electrophorus electricus AChE (EeAChE) (Electrophorus electricus)
Construct: purchased Sigma-Aldrich (Milan, Italy)
assay-protocol: biochemical
setup-conditions: 100 μM acetylthiocholine; read-out: EeAChE, IC50 ± SE
property: IC50 (nM)

Oc1cccc(CNCCCCCCNc2ncccn2)c1O	622

---

measured-on: Aβ42 peptide (Homo sapiens, UniProt P05067)
Construct: expressed in transfected cells; host or cells: E. coli BL21 (DE3), pET28a
Sequence (P05067 672-713 limits assumed): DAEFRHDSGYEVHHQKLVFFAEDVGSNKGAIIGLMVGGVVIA
assay-protocol: Inhibition of Aβ42 aggregation in intact E. coli cells, thioflavin-S
Type: cell-based, Escherichia coli
setup-conditions: [I] = 100 μM
# binarize inhibition at 100 µM: threshold 10% inclusive, high side Criterion met, low side Criterion not met

Oc1cccc(CNCCCCCCNc2ncccn2)c1O	Criterion not met
c1ccc(CNCCCCCCNc2ncccn2)cc1	Criterion met
c1ccc(CNCCCCCCNc2ccccn2)cc1	Criterion met
c1ccc(CNCCCCCNc2ncccn2)cc1	Criterion not met
c1ccc(CNCCCCCNc2ccccn2)cc1	Criterion met
Oc1cccc(CNCCCCCCNc2ncccn2)c1	Criterion met
COc1ccccc1CNCCCCCCNc1ccccn1	Criterion met
COc1cc(CNCCCCCCNc2ccccn2)ccc1O	Criterion met
c1cnc(NCCCCCCNCc2c[nH]c3ccccc23)nc1	Criterion not met
Brc1ccc(CNCCCCCCNc2ccccn2)cc1	Criterion not met
COc1cc(CNCCCCCCNc2ncccn2)ccc1O	Criterion not met

---

Here's what we have: Ki numbers for UniProtKB O42275.
property: Ki (nM)

c1ccc(CNCCCCCCNc2ccccn2)cc1	995
c1ccc(CNCCCCCNc2ccccn2)cc1	743
COc1ccccc1CNCCCCCCNc1ccccn1	1320
c1ccc(CNCCCCCCNc2ncccn2)cc1	426
Oc1cccc(CNCCCCCCNc2ncccn2)c1	509
c1ccc(CNCCCCCNc2ncccn2)cc1	312

---

measured-on: Electrophorus electricus AChE (EeAChE) (Electrophorus electricus)
Construct: purchased Sigma-Aldrich (Milan, Italy)
assay-protocol: Percent inhibition of EeAChE, Ellman's spectrophotometric method
Assay type: biochemical
setup-conditions: read-out: % inhibition vs EeAChE ± SD, [I] 900 nM; 0.0833 U/mL enzyme, 100 μM acetylthiocholine
Protocol: All other chemical and biological reagents and solvents used were of the highest analytical, commercially available grade. […] For all the synthesized compounds, the percentages of inhibition toward AChE of Electrophorus electricus (EeAChE) and equine BChE (eqBChE) were evaluated. […]
Reported inhibition at 0.9 µM maps to class as: b0 (below 10%), b1 (10% to below 20%), b2 (20% or more)

COc1ccccc1CNCCCCCNc1ncccn1	b1
Clc1cc(CNCCCCCCNc2ccccn2)cc(Cl)n1	b0
c1ccc(CNCCCCCCNc2ccccn2)cc1	b2
COc1ccccc1CNCCCCCCNc1ccccn1	b0
COc1ccccc1CNCCCCCCNc1ncccn1	b1
COc1cc(CNCCCCCCNc2ncccn2)ccc1O	b1
Oc1cccc(CNCCCCCCNc2ccccn2)c1O	b2
c1cnc(NCCCCCCNCc2c[nH]c3ccccc23)nc1	b1
c1ccc(CNCCCCCNc2ccccn2)cc1	b1
COc1cc(CNCCCCCCNc2ccccn2)ccc1O	b1

---

Examples of molecules with documented inhibition at 9 µM follow.
measured-on: Electrophorus electricus AChE (EeAChE) (Electrophorus electricus, UniProt O42275)
Construct: purchased Sigma-Aldrich (Milan, Italy)
Sequence (O42275 24-633): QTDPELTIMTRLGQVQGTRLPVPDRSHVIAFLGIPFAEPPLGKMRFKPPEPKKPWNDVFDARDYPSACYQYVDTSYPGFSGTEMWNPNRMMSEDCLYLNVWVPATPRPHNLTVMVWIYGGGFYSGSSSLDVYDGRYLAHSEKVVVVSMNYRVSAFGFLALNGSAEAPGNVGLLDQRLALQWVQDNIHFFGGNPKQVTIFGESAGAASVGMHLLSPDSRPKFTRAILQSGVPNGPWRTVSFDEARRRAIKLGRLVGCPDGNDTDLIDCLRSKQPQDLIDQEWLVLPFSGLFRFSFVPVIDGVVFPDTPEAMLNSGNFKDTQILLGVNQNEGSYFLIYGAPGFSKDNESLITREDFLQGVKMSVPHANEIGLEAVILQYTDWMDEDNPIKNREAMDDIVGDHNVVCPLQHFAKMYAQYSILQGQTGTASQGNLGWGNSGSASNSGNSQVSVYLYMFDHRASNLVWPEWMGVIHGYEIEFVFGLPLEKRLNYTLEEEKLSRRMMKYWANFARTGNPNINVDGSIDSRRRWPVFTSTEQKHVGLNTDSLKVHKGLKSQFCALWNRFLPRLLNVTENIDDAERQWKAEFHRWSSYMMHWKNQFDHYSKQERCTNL
assay-protocol: Percent inhibition of EeAChE, Ellman's spectrophotometric method
Type: biochemical
setup-conditions: read-out: % inhibition vs EeAChE ± SD (9 uM), 9 uM; supplement csv
Description: All other chemical and biological reagents and solvents used were of the highest analytical, commercially available grade. […] For all the synthesized compounds, the percentages of inhibition toward AChE of Electrophorus electricus (EeAChE) and equine BChE (eqBChE) were evaluated. […]
property: inhibition at 9 µM (%)

c1ccc(CNCCCCCCNc2ncccn2)cc1	92.9
Brc1ccc(CNCCCCCCNc2ccccn2)cc1	23.5
COc1cc(CNCCCCCCNc2ccccn2)cc(OC)c1OC	30.9
Brc1ccc(CNCCCCCNc2ncccn2)cc1	14.5
Oc1cccc(CNCCCCCCNc2ncccn2)c1O	90.5
COc1cc(CNCCCCCCNc2ncccn2)cc(OC)c1OC	16.4
Oc1cccc(CNCCCCCCNc2ccccn2)c1	42.2
Clc1cc(CNCCCCCCNc2ccccn2)cc(Cl)n1	40.6
c1ccc(CNCCCCCNc2ncccn2)cc1	90.2
COc1cc(CNCCCCCCNc2ccccn2)ccc1O	61.8
Oc1cccc(CNCCCCCCNc2ncccn2)c1	84.4

---

Examples of compounds with documented inhibition at 9 µM follow.
measured-on: Electrophorus electricus AChE (EeAChE) (Electrophorus electricus, UniProt O42275)
Construct: purchased Sigma-Aldrich (Milan, Italy)
assay-protocol: Percent inhibition of EeAChE, Ellman's spectrophotometric method
Format: biochemical
setup-conditions: read-out: % inhibition vs EeAChE ± SD, [I] 9 μM; 0.0833 U/mL enzyme, 100 μM acetylthiocholine
property: inhibition at 9 µM

Brc1ccc(CNCCCCCCNc2ncccn2)cc1 [Compound 14]	23%
Oc1cccc(CNCCCCCCNc2ccccn2)c1O [Compound 32]	~60%
Clc1cc(CNCCCCCCNc2ccccn2)cc(Cl)n1 [Compound 33]	~40%
